Target: T1, human GIP receptor (human, UniProt P48546 22-466)
T1 sequence (looked up): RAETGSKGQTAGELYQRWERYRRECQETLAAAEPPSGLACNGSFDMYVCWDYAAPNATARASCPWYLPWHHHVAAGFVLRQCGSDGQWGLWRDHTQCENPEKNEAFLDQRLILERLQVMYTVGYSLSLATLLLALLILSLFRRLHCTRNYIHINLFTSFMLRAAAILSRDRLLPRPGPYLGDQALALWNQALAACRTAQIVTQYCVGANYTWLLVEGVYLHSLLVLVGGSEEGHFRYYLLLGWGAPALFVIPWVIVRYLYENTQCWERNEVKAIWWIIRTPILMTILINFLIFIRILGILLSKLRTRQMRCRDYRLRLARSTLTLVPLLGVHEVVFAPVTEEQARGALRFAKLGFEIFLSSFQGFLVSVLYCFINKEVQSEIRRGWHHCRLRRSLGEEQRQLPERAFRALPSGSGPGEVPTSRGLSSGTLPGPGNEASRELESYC
Assay: cell-based or functional assay
Ends that are not written are not given here. * marks the point of attachment. Stearoyl = CCCCCCCCCCCCCCCCCC(=O)*; Palmitoyl = CCCCCCCCCCCCCCCC(=O)*; Lauroyl = CCCCCCCCCCCC(=O)*
assay.metric: cAMP agonism, nM (EC50) (nM)
Numeric only. Scale: nM

Worked cases, answers included:
* Lauroyl-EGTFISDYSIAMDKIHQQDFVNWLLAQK-NH2 [AT101 [hGIP(3-30)NH2-C12/3]] | 0.7
* Lauroyl-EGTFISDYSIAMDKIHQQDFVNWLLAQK-NH2 [AT148 [hGIP(3-30)NH2-C12/3]] | 13
* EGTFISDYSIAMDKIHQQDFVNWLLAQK(Palmitoyl)-NH2 [AT106 [hGIP(3-30)NH2-C16/30]] | 390
* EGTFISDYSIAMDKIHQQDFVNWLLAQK(Stearoyl)-NH2 [AT115 [hGIP(3-30)NH2-C18/30]] | 134
* EGTFISDYSIAMDK(Stearoyl)IRQQDFVNWLLAQR-NH2 (not fully specified) [AT162 [hGIP(3-30)NH2[H18R; K30R]-C18/16]] | 1370

Could you now look at the following binder, please?
Recorded cAMP agonism, nM (EC50) for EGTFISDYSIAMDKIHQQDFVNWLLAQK(Lauroyl)-NH2 [AT103 [hGIP(3-30)NH2-C12/30]] , please?
4880
